Each item that follows carries a reported IC50.
system: H1650 lung cancer cells; assay: Cell viability assay (MTT, IC50 determination); format: cell-based; details: Homo sapiens, NCI-H1650; H1650 lung cancer cells, MTT, 48 hours after drug treatment; read-out: H1650 cell viability IC50
Hi! Could you send only the number? It should be in µM, unit omitted.

A selection of reference data follows.
compound	obs.value
Cc1ccc2c(c1)c1cc(C)ccc1n2[C@H]1COC[C@@H](NS(=O)(=O)c2ccc(OC(F)(F)F)cc2)[C@@H]1O	5
CC(C)(C)OC(=O)Nc1ccc(S(=O)(=O)N[C@@H]2COC[C@H](N3c4ccccc4Oc4ccccc43)[C@H]2O)cc1	5
O=S(=O)(N[C@@H]1COC[C@H](N2c3ccccc3Oc3cc(C(F)(F)F)ccc32)[C@H]1O)c1ccc(OC(F)(F)F)cc1	5
O=S(=O)(N[C@@H]1COC[C@H](n2c3ccccc3c3cc(F)ccc32)[C@H]1O)c1ccc(OC(F)(F)F)cc1	15
O=S(=O)(N[C@H]1CNC[C@@H](N2c3ccccc3Oc3ccccc32)[C@@H]1O)c1ccc(OC(F)(F)F)cc1 [Example 17b]	10

Asked: Using the record for "O=S(=O)(N[C@H]1COC[C@@H](N2c3ccccc3Oc3ccccc32)[C@@H]1O)c1ccc(OC(F)(F)F)cc1" , report its IC50.
Given back: 15

Asked: Can you handle "O=S(=O)(N[C@@H]1COC[C@H](N2c3ccccc3Oc3ccccc32)[C@H]1O)c1ccc(Cl)s1" next?
Given back: 15

Source listed as patent US10759790B2.
